- ASSAY_NOTES: Host cytotoxicity in HBV assay
- SETUP_CONDITIONS: human, HepG2 2.2.15 cells
TEST_READOUT: CC50 (µM)
Quick note: give the figure in µM, leave out the unit.

Exam item: Which CC50 value belongs to Nc1ccn([C@@H]2CS[C@H](CO)O2)c(=O)n1 [Lamivudine] ?
Marked response: 2190
